# assay system: T1, Activin A (UniProt P08476 311-426)
# T1 sequence (looked up): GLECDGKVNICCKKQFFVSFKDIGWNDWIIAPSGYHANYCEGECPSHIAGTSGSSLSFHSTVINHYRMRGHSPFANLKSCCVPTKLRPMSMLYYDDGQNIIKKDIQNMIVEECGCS
# test: cell-based or functional assay
metric name: IC50 (ng/mL), A-204 reporter gene assay, conditioned media

binder	measurement units	measured number
ActRIIB(20-128)-hFc (Fc fusion, not shown: a dimerising Fc or GST) GRGEAETRECIYYNANWELERTNQSGLERCEGEQDKRLHCYASWRNSSGTIELVKKGCWLDDFNCYDRQECVATEENPQVYFCCCEGNFCNERFTHLPEAGGPEVTYEPGGG	ng/mL	158
ActRIIB(22-131)-hFc (Fc fusion, not shown: a dimerising Fc or GST) GEAETRECIYYNANWELERTNQSGLERCEGEQDKRLHCYASWRNSSGTIELVKKGCWLDDFNCYDRQECVATEENPQVYFCCCEGNFCNERFTHLPEAGGPEVTYEPPPTGGG	ng/mL	100
ActRIIB(20-132)-hFc (Fc fusion, not shown: a dimerising Fc or GST) GRGEAETRECIYYNANWELERTNQSGLERCEGEQDKRLHCYASWRNSSGTIELVKKGCWLDDFNCYDRQECVATEENPQVYFCCCEGNFCNERFTHLPEAGGPEVTYEPPPTAGGG	ng/mL	32
ActRIIB(20-134)-hFc (Fc fusion) GRGEAETRECIYYNANWELERTNQSGLERCEGEQDKRLHCYASWRNSSGTIELVKKGCWLDDFNCYDRQECVATEENPQVYFCCCEGNFCNERFTHLPEAGGPEVTYEPPPTAPTGGGTHTCPPCPAPELLGGPSVFLFPPKPKDTLMISRTPEVTCVVVDVSHEDPEVKFNWYVDGVEVHNAKTKPREEQYNSTYRVVSVLTVLHQDWLNGKEYKCKVSNKALPVPIEKTISKAKGQPREPQVYTLPPSREEMTKNQVSLTCLVKGFYPSDIAVEWESNGQPENNYKTTPPVLDSDGSFFLYSKLTVDKSRWQQGNVFSCSVMHEALHNHYTQKSLSLSPGK	ng/mL	22
ActRIIB(23-131)-hFc (Fc fusion, not shown: a dimerising Fc or GST) EAETRECIYYNANWELERTNQSGLERCEGEQDKRLHCYASWRNSSGTIELVKKGCWLDDFNCYDRQECVATEENPQVYFCCCEGNFCNERFTHLPEAGGPEVTYEPPPTGGG	ng/mL	43
ActRIIB(20-131)-hFc (Fc fusion, not shown: a dimerising Fc or GST) GRGEAETRECIYYNANWELERTNQSGLERCEGEQDKRLHCYASWRNSSGTIELVKKGCWLDDFNCYDRQECVATEENPQVYFCCCEGNFCNERFTHLPEAGGPEVTYEPPPTGGG	ng/mL	201
ActRIIB(24-131)-hFc (Fc fusion, not shown: a dimerising Fc or GST) AETRECIYYNANWELERTNQSGLERCEGEQDKRLHCYASWRNSSGTIELVKKGCWLDDFNCYDRQECVATEENPQVYFCCCEGNFCNERFTHLPEAGGPEVTYEPPPTGGG	ng/mL	105
ActRIIB(21-131)-hFc (Fc fusion, not shown: a dimerising Fc or GST) RGEAETRECIYYNANWELERTNQSGLERCEGEQDKRLHCYASWRNSSGTIELVKKGCWLDDFNCYDRQECVATEENPQVYFCCCEGNFCNERFTHLPEAGGPEVTYEPPPTGGG	ng/mL	325
